System: CCRIS mutagenicity, Ames/micronucleus/aberration tests
Experiment: CCRIS mutagenicity studies
Settings: Test System: AMES SALMONELLA TYPHIMURIUM; Strain/Indicator: TA1535; Metabolic Activation: HAMSTER, LIVER, S-9, AROCLOR 1254; Method: STANDARD PLATE
Description: The CCRIS database contains chemical records with carcinogenicity, mutagenicity, tumor promotion, and tumor inhibition test results. It was developed by the National Cancer Institute (NCI). Data are derived from studies cited in primary journals, current awareness tools, NCI reports, and other sources. Test results have been reviewed by experts in carcinogenesis and mutagenesis. CCRIS provides historical information from the years 1985 - 2011. It is no longer updated. […]
Calls of active or inactive are those of the source. No rule for the calls is given here.
Hi! Could you answer with just one of these? active, inactive

Previously resolved entries follow.
[
  {
    "COMPOUND": "ClNc1nc(NCl)nc(NCl)n1",
    "ASSIGNED CLASS": "inactive"
  },
  {
    "COMPOUND": "C/C=N/O",
    "ASSIGNED CLASS": "inactive"
  },
  {
    "COMPOUND": "CN(Cc1cccc(C#N)c1)N=O",
    "ASSIGNED CLASS": "active"
  },
  {
    "COMPOUND": "O=C(CCl)c1ccc(Cl)cc1Cl",
    "ASSIGNED CLASS": "inactive"
  }
]

Task: Please let me know the test result on file for "CCOCOCC" .
Output: inactive

Task: Please let me know the test result on file for "O=C(O)O" .
Output: inactive

Task: Please let me know the test result on file for "ON=C1CCCCC1" .
Output: inactive

Task: Please let me know the test result on file for "Fc1ccccc1-c1ccccc1" .
Output: inactive

Task: Please let me know the test result on file for C1CCC2CCCCC2C1 (centres undefined) .
Output: inactive

Task: Please let me know the test result on file for "NC(=O)c1ccc(N)cc1" .
Output: inactive

---

system: CCRIS mutagenicity, Ames/micronucleus/aberration tests; experiment: CCRIS mutagenicity studies; details: Test System: AMES SALMONELLA TYPHIMURIUM; Strain/Indicator: TA1538; Metabolic Activation: RAT, LIVER, S-9, AROCLOR 1254; Method: STANDARD PLATE
Calls of active or inactive are those of the source. The rule behind the calls is not given here.
Hi! Could you answer with just one of these? yes (active), no (inactive)

[
  {
    "COMPOUND": "COc1cc(-c2ccc(N/N=C3\\C(=O)c4c(O)cc(S(=O)(=O)O)cc4C=C3S(=O)(=O)O)c(OC)c2)ccc1N/N=C1\\C(=O)c2c(O)cc(S(=O)(=O)O)cc2C=C1S(=O)(=O)O",
    "ASSIGNED CLASS": "no"
  }
]

Task: Please let me know the test result on file for "C=CC(=O)OCCCC" .
Output: no

---

test system: CCRIS mutagenicity, Ames/micronucleus/aberration tests; assay: CCRIS mutagenicity studies; settings: Test System: AMES SALMONELLA TYPHIMURIUM; Strain/Indicator: TA98; Metabolic Activation: NONE; Method: STANDARD PLATE
Active and inactive are the calls of the source. No rule for the calls is given here.
METRIC NAME: mutagenic call

# count of solved cases: 10
[
  {
    "COMPOUND": "COc1cc(N=Nc2ccc(N(CCO)CCO)cc2)ccc1N=Nc1c(S(=O)(=O)O)cc2ccc(N)cc2c1O",
    "mutagenic call": "inactive; negative"
  },
  {
    "COMPOUND": "O=[N+]([O-])c1ccc2ccc3cccc4c(O)cc1c2c34",
    "mutagenic call": "active; positive"
  },
  {
    "COMPOUND": "Cc1c2c(cc3ccccc13)-c1ccccc1C1NC21 (configuration not stated)",
    "mutagenic call": "active; positive"
  },
  {
    "COMPOUND": "CC(=O)O[C@H]1CC[C@]2(C)[C@H]3CC[C@]4(C)[C@@H]([C@H](C)CCCC(C)C)CC[C@H]4[C@@H]3C[C@@H]3N(N4C(=O)c5ccccc5C4=O)[C@@]32C1 (some centres not stated)",
    "mutagenic call": "active; positive"
  },
  {
    "COMPOUND": "CCN(CC)c1ccc(N=Nc2ccc(N=Nc3c(S(=O)(=O)O)cc4ccc(N)cc4c3O)c(OC)c2)cc1",
    "mutagenic call": "inactive; negative"
  },
  {
    "COMPOUND": "ClCCl",
    "mutagenic call": "inactive; negative"
  },
  {
    "COMPOUND": "CCN(CC)c1ccc(N=Nc2ccc([N+](=O)[O-])cc2)cc1",
    "mutagenic call": "inactive; negative"
  },
  {
    "COMPOUND": "CCCS(=O)(=O)n1ncc(Cl)c(Cl)c1=O",
    "mutagenic call": "inactive; negative"
  },
  {
    "COMPOUND": "COC(=O)C1(C(N)=O)OC1(C)C(O)C(C)C (configuration not stated)",
    "mutagenic call": "inactive; negative"
  },
  {
    "COMPOUND": "O=C1CCCN1c1ncc([N+](=O)[O-])s1",
    "mutagenic call": "active; positive"
  }
]

Record "Cc1ccc2[nH]c3c(C)cc([N+](=O)[O-])c(C)c3c2c1" ; system CCRIS mutagenicity, Ames/micronucleus/aberration tests; mutagenic call = active; positive

Record CC(C)=CCCC(C)CCO (configuration not stated) ; system CCRIS mutagenicity, Ames/micronucleus/aberration tests; mutagenic call = inactive; negative
